Overview of recorded % of binding of Clone #153 to human P-cadherin-Fc for various binders
target: T1, P-cadherin-ECD1-3-Fc protein (human P-cadherin-Fc) (human, UniProt P22223 108-440); test: phage scFv ELISA, coated P-cadherin-ECD1-3-Fc
T1 construct: Construct was expressed with signal peptide and pro-peptide (PACE co-transfected to process the propeptide); not shown: hinge and CH2 and CH3 domains of human IgG1
T1 sequence (P22223 108-440): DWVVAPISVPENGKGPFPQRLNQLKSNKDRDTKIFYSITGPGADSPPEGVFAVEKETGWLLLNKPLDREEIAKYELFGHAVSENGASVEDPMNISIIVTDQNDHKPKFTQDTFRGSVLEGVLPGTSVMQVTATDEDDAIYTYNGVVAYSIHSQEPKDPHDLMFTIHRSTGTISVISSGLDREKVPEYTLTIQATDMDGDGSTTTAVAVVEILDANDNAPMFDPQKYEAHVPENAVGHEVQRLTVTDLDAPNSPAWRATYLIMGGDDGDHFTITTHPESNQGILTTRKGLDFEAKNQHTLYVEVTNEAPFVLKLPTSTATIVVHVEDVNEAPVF
Attribute measured: % of binding of Clone #153 to human P-cadherin-Fc (%)

binder="anti-P-cadherin scFv 153 alanine-mutant L1.8-Ala (scFv, V domains shown, scFv on phage) VH: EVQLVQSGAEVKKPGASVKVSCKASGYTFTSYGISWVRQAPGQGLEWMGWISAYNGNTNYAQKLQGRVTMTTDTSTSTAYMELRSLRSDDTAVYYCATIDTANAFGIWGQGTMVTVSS VL: QSVLTQPPSVSAAPGQKVTISCSGSSSNIANNYVSWYQQLPGTAPKLLIYDNNKRPSGIPDRFSGSKSGTSATLGITGLQTGDEADYYCGTWDSSLSGVVFGGGTKLTVL" endpoint_result=75
binder="anti-P-cadherin scFv 153 alanine-mutant L2.2-Ala (scFv, V domains shown, scFv on phage) VH: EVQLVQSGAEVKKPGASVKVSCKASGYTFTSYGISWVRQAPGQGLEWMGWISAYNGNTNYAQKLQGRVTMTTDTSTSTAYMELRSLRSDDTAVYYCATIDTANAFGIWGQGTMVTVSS VL: QSVLTQPPSVSAAPGQKVTISCSGSSSNIGNNYVSWYQQLPGTAPKLLIYDANKRPSGIPDRFSGSKSGTSATLGITGLQTGDEADYYCGTWDSSLSGVVFGGGTKLTVL" endpoint_result=102
